Test system: Corn
protocol-text: Field preemergence test, phytotoxic effects on crop
Assay type: in vivo, sweet corn
reported-conditions: 1.0 lb/A
quantity-measured: % Crop Kill, Corn (%)
Return type: number; implicit unit %.

Below, each entry is followed by its recorded % Crop Kill, Corn result.
# compound, tested-target, uom, % Crop Kill, Corn
records = [
    ("C#CCN(C(=O)CCl)c1ccccc1CC [Example 11, 2-Chloro-2'-ethyl-N-propargylacetanilide]", "Corn", "%", 0),
    ("C#CCN(C(=O)CCl)c1ccccc1C [Example 10]", "Corn", "%", 0),
    ("C#CCN(C(=O)CCl)c1c(CC)cccc1CC [Example 9]", "Corn", "%", 0),
]

Moving on to the next compound.
Item C#CCN(C(=O)CCl)c1c(C)cccc1CC [Example 15] has what recorded % Crop Kill, Corn?
3
